Test system: Plasmodium berghei
procedure-summary: Antiplasmodial activity against Plasmodium berghei infected in NMRI mice (Mus musculus) assessed as parasitaemia level at 30 mg/kg, subcutaneously after 3 days relative to control
Format: functional
condition-description: route subcutaneous
property: Activity (%)
All answers are understood in %, so give the number only.

CN(CCCNc1ccnc2cc(Cl)ccc12)CCCN1c2ccccc2CCc2ccccc21 :: 92

Moving on to another molecule below.
Record Clc1ccc2c(NCCCN3CCC(NC(c4ccccn4)c4ccccn4)CC3)ccnc2c1 [DM-1157] , field Activity: 99.3

---

// reported Ratio IC50 for each item listed
Test system: Plasmodium falciparum
procedure-summary: Ratio of compound IC50 to chloroquine IC50 for chloroquine-resistant Plasmodium falciparum Dd2
Assay type: functional
Write the value as a bare number.

Clc1ccc2c(NCCCN3CCN(C4C5CC6CC(C5)CC4C6)CC3)ccnc2c1 (stereo not given) :: 1.8
Clc1ccc2c(NCCN3CCCN(C4c5ccccc5-c5ccccc54)CC3)ccnc2c1 :: 9.6
Clc1ccc2c(NCCCN3CCN(CC(c4ccccc4)c4ccccc4)CC3)ccnc2c1 :: 3.3
Clc1ccc2c(NCCCN3CCNCC3)ccnc2c1 :: 6.8
Clc1ccc2c(NCCCCN3CCN(C(c4ccccc4)c4ccccc4)CC3)ccnc2c1 :: 1.3
Clc1ccc2c(NCCCN3CCN(C(c4ccccc4)c4ccccc4)CC3)ccnc2c1 :: 2.6
Clc1ccc2c(NCCCN3CCCN(C4c5ccccc5-c5ccccc54)CC3)ccnc2c1 :: 15
Fc1ccc(C(c2ccc(F)cc2)N2CCN(CCCNc3ccnc4cc(Cl)ccc34)CC2)cc1 :: 2.4

Entry under test: Clc1ccc(C(c2ccccc2)N2CCCN(CCCNc3ccnc4cc(Cl)ccc34)CC2)cc1 (stereo not given) . Its Ratio IC50 was 5.7

Query Clc1ccc(C(c2ccccc2)N2CCN(CCNc3ccnc4cc(Cl)ccc34)CC2)cc1 (stereo not given) yields Ratio IC50 of 2

---

Quick reference: selectivity ratio of the listed items.
procedure-summary: Therapeutic index, ratio of IC50 for mice (Mus musculus) spleen lymphocytes to IC50 for chloroquine-resistant Plasmodium falciparum Dd2
Type: tissue-based
condition-description: read-out: Ratio IC50

Clc1ccc2c(NCCN3CCCN(C4c5ccccc5-c5ccccc54)CC3)ccnc2c1 :: 260
Clc1ccc2c(NCCCN3CCN(C(c4ccccc4)(c4ccccc4)c4ccccc4)CC3)ccnc2c1 :: 13600
Clc1ccc2c(NCCCN3CCCN(C4c5ccccc5-c5ccccc54)CC3)ccnc2c1 :: 167
OCCN1CCN(C(c2ccccc2)c2ccccc2)CC1 :: > 50

Noted for CN(CCCNc1ccnc2cc(Cl)ccc12)CCCN1c2ccccc2CCc2ccccc21 : its selectivity ratio reads 132

---

Measured Ratio IC50, listed per entry for reference.
Tested on: Plasmodium falciparum
procedure-summary: Ratio of compound IC50 to chloroquine IC50 for chloroquine-resistant Plasmodium falciparum Dd2
Format: functional
API note: the answer field is a bare number with no unit suffix.

# compound Clc1ccc2c(NCCCN3CCN(C(c4ccccc4)(c4ccccc4)c4ccccc4)CC3)ccnc2c1 ; its Ratio IC50 = 4.2

The value of Ratio IC50 measured for the compound CN(CCCN1c2ccccc2CCc2ccccc21)CCNc1ccnc2cc(Cl)ccc12 turned out to be 5.2

Recorded result, Clc1ccc2c(NCCCN3CCCN(C(c4ccccc4)c4ccccc4)CC3)ccnc2c1 , Ratio IC50: 4.1

---

Test system: Plasmodium falciparum
procedure-summary: Ratio of compound IC50 to chloroquine IC50 for chloroquine-resistant Plasmodium falciparum Dd2
Format: functional
Below, each of the compounds is paired with its reported Ratio IC50 value.
Please reply with the number alone, leaving off any unit.

Consider the following illustrative entries.
Clc1ccc2c(NCCN3CCC(NC(c4ccccn4)c4ccccn4)CC3)ccnc2c1 :: 3.9
Clc1ccc2c(NCCN3CCN(C(c4ccccc4)c4ccccc4)CC3)ccnc2c1 :: 3.6
Clc1ccc(C(c2ccccc2)N2CCN(CCCNc3ccnc4cc(Cl)ccc34)CC2)cc1 (stereo not given) :: 3.5

# input for lookup
Bench note, Plasmodium falciparum: CN(CCCNc1ccnc2cc(Cl)ccc12)CCCN1c2ccccc2CCc2ccccc21 , Ratio IC50 reads 5.3
